Ref: paper PMC6522510

Test system: ML-2
ASSAY PROCEDURE: cells
Design: species or system AML cell lines (8); Secondary HTS, 10-point dose-response in triplicate, Cell Titer Glo viability, four-parameter fit EC50
CONDITION DESCRIPTION: Homo sapiens; 72 h cell viability; read-out: ML-2
QUANTITY: EC50

- COMPOUND: "O=C(O)Cc1ccccc1 [SJ000784253, SODIUM PHENYLACETATE]"
  ASSAY RESULT: "> 10 µM"

###

Tested on: ML2
ASSAY PROCEDURE: Secondary dose-response HTS, Cell Titer Glo
Format: cell-based, human
CONDITION DESCRIPTION: Homo sapiens; secondary high-throughput screen; ML-2; read-out: average effective concentration, ML-2
Where a name gives a salt, the structure may show the parent alone.
QUANTITY: log10 EC50 (log10 of the value in nM)

- COMPOUND: "COc1c(C)cnc(Cn2cnc3c(Cl)nc(N)nc32)c1C"
  SYSTEM NAME: "ML2"
  ASSAY RESULT: 1.92
- COMPOUND: "CC(C)c1cc(-c2n[nH]c(=O)n2-c2ccc3c(ccn3C)c2)c(O)cc1O"
  SYSTEM NAME: "ML2"
  ASSAY RESULT: 0.73
- COMPOUND: "O=c1ncccn1[C@@H]1O[C@H](CO)[C@@H](O)[C@H]1O"
  SYSTEM NAME: "ML2"
  ASSAY RESULT: 2.86
- COMPOUND: "O=C(NC[C@H](O)CO)c1ccncc1Nc1ccc(I)cc1F"
  SYSTEM NAME: "ML2"
  ASSAY RESULT: 0.00
- COMPOUND: "C=C(C)[C@@H](CC=C(C)C)C[C@@]12C[C@@H](CC=C(C)C)C(C)(C)[C@@](CC=C(C)C)(C(=O)C(C(=O)c3ccc(O)c(O)c3)=C1O)C2=O"
  SYSTEM NAME: "ML2"
  ASSAY RESULT: 3.73
- COMPOUND: "CO[C@@H]1[C@H](N(C)C(=O)c2ccccc2)C[C@H]2O[C@]1(C)n1c3ccccc3c3c4c(c5c6ccccc6n2c5c31)C(=O)NC4"
  SYSTEM NAME: "ML2"
  ASSAY RESULT: 1.23
- COMPOUND: "CCN(CCCOc1ccc2c(Nc3cc(CC(=O)Nc4cccc(F)c4)n[nH]3)ncnc2c1)CCOP(=O)(O)O [barasertib, reference compound]"
  SYSTEM NAME: "ML2"
  ASSAY RESULT: 0.00
- COMPOUND: "Oc1ccc(C2=Cc3ccc(O)cc3OC2)cc1"
  SYSTEM NAME: "ML2"
  ASSAY RESULT: 2.11
- COMPOUND: "CC[C@]1(O)C[C@@H]2CN(CCc3c([nH]c4ccccc34)[C@@](C(=O)OC)(c3cc4c(cc3OC)N(C)[C@H]3[C@@](O)(C(=O)OC)[C@H](OC(C)=O)[C@]5(CC)C=CCN6CC[C@]43[C@@H]65)C2)C1 [VINBLASTINE SULFATE]"
  SYSTEM NAME: "ML2"
  ASSAY RESULT: 2.76
- COMPOUND: "C=CCn1c(=O)c2cnc(Nc3ccc(N4CCN(C)CC4)cc3)nc2n1-c1cccc(C(C)(C)O)n1 [MK-1775, reference compound]"
  SYSTEM NAME: "ML2"
  ASSAY RESULT: 2.32
- COMPOUND: "CS(=O)(=O)N1CCc2c(-c3cnc(N)nc3)nc(N3CCOCC3)nc21"
  SYSTEM NAME: "ML2"
  ASSAY RESULT: 3.84
